Provenance of the data: PubChem BioAssay (NCI)

Assay: NCI Yeast Anticancer Drug Screen. Data for the bub3 strain (AID 167)
Settings: S. cerevisiae bub3 mutant strain, at 50.0 µM (retest, dose inferred, filed as 5.0), hits give high values
Description: Growth inhibition of yeast strains with defined genetic alterations is measured as a screen for potential anti-cancer activity. Selected strains with alterations in DNA damage repair or cell cycle control were exposed to compounds and growth inhibition was measured relative to vehicle treated controls. The strain used in this assay is bub3
The panel holds about 79,000 compounds, 15% with a hit somewhere; the sample as a whole holds those more often. The source made the active and inactive calls. Cut-off read from the data, not from the text of the source: active = growth inhibition above about 70%; inactive = the rest.

>  <compound>
Cc1cccc2c1Oc1ccccc1C2N1C(=O)/C(=C/c2cccs2)SC1=S (centres undefined)

>  <growth inhibition>
-4% (inactive)

$$$$
>  <compound>
O=S1(=O)CC=C1c1ccccc1

>  <growth inhibition>
84% (active)

$$$$
>  <compound>
O=C1CC2(CCCC2)C(=O)N1c1ccc(N2C(=O)CC3(CCCC3)C2=O)cc1

>  <growth inhibition>
-4% (inactive)

$$$$
>  <compound>
CC(=O)NC1=C(Cl)C(=O)c2ccccc2C1=O

>  <growth inhibition>
99% (active)

$$$$
>  <compound>
OC(Cc1cccnc1)(c1ccccc1)c1ccc(Cl)cc1 (centres undefined)

>  <growth inhibition>
77% (active)

$$$$
>  <compound>
O=C(Cc1ccccc1)NNc1nc(NNC(=O)c2ccncc2)nc(Nc2ccccc2)n1

>  <growth inhibition>
19% (inactive)

$$$$
>  <compound>
CCCCCc1[nH]nc(C(=O)OC)c1N=NN1CCOCC1

>  <growth inhibition>
99% (active)

$$$$
>  <compound>
Oc1c(C(Nc2ccccn2)c2ccccc2)ccc2cccnc12 (centres undefined)

>  <growth inhibition>
97% (active)

$$$$
>  <compound>
S=C(Nc1ccc(N=Nc2ccccc2)cc1)SCc1ccccc1

>  <growth inhibition>
11% (inactive)

$$$$
>  <compound>
COc1ccc(COCCOCc2nc(C#N)c(N)o2)cc1

>  <growth inhibition>
12% (inactive)

$$$$
>  <compound>
O=C1NC(Cc2ccccc2)C(=O)O1 (centres undefined)

>  <growth inhibition>
-2% (inactive)

$$$$
>  <compound>
CCCCCN=Cc1c(O)c(O)c(C(C)C)c2cc(C)c(-c3c(C)cc4c(C(C)C)c(O)c(O)c(C=NCCCCC)c4c3O)c(O)c12

>  <growth inhibition>
40% (inactive)

$$$$
>  <compound>
O=C(CC(c1ccccc1)c1ccccc1)NCCCCN1CCCCCCC1

>  <growth inhibition>
93% (active)

$$$$
>  <compound>
Brc1ccc(CCNCCN2CCCCC2)cc1

>  <growth inhibition>
57% (inactive)

$$$$
>  <compound>
CCCCc1c(O)c(N=NC(=O)C[n+]2ccccc2)c2ccccc2c1O

>  <growth inhibition>
-1% (inactive)

$$$$
>  <compound>
CCOC(=O)/C(=C\c1cccc(C(F)(F)F)c1)P(=O)(OCC)OCC

>  <growth inhibition>
85% (active)

$$$$
>  <compound>
C#CC(O)c1ccc(Cl)cc1Cl (centres undefined)

>  <growth inhibition>
96% (active)

$$$$
>  <compound>
Cc1cc(C)[nH]c(=S)n1.[Pt]

>  <growth inhibition>
-2% (inactive)

$$$$
>  <compound>
CC(C)(C)c1ccc(O)c(CN(Cc2c(O)ccc3ccccc23)C2CCCCC2)c1

>  <growth inhibition>
99% (active)

$$$$
>  <compound>
C=Cc1nc(N)nc(-c2ccc(C)cc2)n1

>  <growth inhibition>
93% (active)

$$$$
>  <compound>
CCOC(=O)c1[nH]cc(C)c1-c1ccc2c(-c3ccccc3)nc3ccccc3n12

>  <growth inhibition>
79% (active)

$$$$
>  <compound>
CC(=O)Oc1cc(OC(C)=O)c2cc(Br)ccc2c1OC(C)=O

>  <growth inhibition>
65% (inactive)

$$$$
>  <compound>
COc1ccc2c(c1)CCCN2CCCCCCCCCN1CCCCC1

>  <growth inhibition>
76% (active)

$$$$
>  <compound>
C1=C(c2c(-c3ccccc3)[nH]c3ccccc23)Cc2ccccc21

>  <growth inhibition>
58% (inactive)

$$$$

###

Assay: NCI Yeast Anticancer Drug Screen. Data for the rad50 strain (AID 155);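 note: 0% = growth of vehicle-only cultures of the same strain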
Details: S. cerevisiae rad50 strain growth inhibition; at 50.0 µM (retest, dose inferred, filed as 5.0); hits give high values
This is part of a sample that, as a whole, favours compounds with a hit. Of some 79,000 tested, about 15% had one in any assay.
# growth inhibition values compiled below
endpoint-label: growth inhibition (%)

>  <compound>
CN(C)CCOc1cc2c(c3ccccc13)-c1ccccc1C2=O

>  <measured-value>
99

$$$$
>  <compound>
O=[N+]([O-])c1ccc2c(c1)[n+]([O-])c1[nH]c3ccccc3c1[n+]2[O-] (tested in a mixture with another compound)

>  <measured-value>
88

$$$$
>  <compound>
CCC(=O)C(CC)(c1ccc(OC(C)=O)cc1)c1ccc(OC(C)=O)cc1

>  <measured-value>
82

$$$$
>  <compound>
CC(C)C1=CC23CCC4C(C)(C(=O)O)CCCC4(C)C2CC1C(C(=O)O)C3C(=O)O (centres undefined)

>  <measured-value>
99

$$$$
>  <compound>
O=C1C2C3C=CC(C3)C2C(=O)C2C3C=CC(C3)C12 (centres undefined)

>  <measured-value>
96

$$$$
>  <compound>
COc1ccccc1C(c1cc2c(cc1O)OCO2)N1CCOCC1 (centres undefined)

>  <measured-value>
97

$$$$
>  <compound>
CC1=C(C(=O)Nc2ccc(C)cc2C)C(c2cccc([N+](=O)[O-])c2)C(C(=O)Nc2ccc(C)cc2C)=C(C)N1

>  <measured-value>
50

$$$$
>  <compound>
COc1cc2c(cc1OC)NCC1COc3c(ccc(OC)c3OC)C1=N2 (centres undefined)

>  <measured-value>
14

$$$$
>  <compound>
CCCCCCOC(=O)CCC(=O)OCCCCCC

>  <measured-value>
-20

$$$$
>  <compound>
O=C(O)C1(Cc2ccc3c(c2)CCC3)Cc2ccccc2C1

>  <measured-value>
18

$$$$
>  <compound>
CCCCCCCCCCCCCCCCCC[N+]1(CC)CCCCC1

>  <measured-value>
99

$$$$
>  <compound>
Fc1cccc(NC(=S)SCc2ccc(Cl)cc2)c1

>  <measured-value>
98

$$$$
>  <compound>
CC(=O)Nc1cccc(C(=O)O)c1

>  <measured-value>
-2

$$$$
>  <compound>
NC1OC(COC(=O)c2ccccc2)C(O)C(OC(=O)c2ccccc2)C1OC(=O)c1ccccc1 (centres undefined)

>  <measured-value>
97

$$$$
>  <compound>
Cc1cccc2ccc3cc(CC(=O)O)c4cccc(C)c4c3c12

>  <measured-value>
99

$$$$
>  <compound>
CC1(C)CC(=O)C(c2ccccc2[N+](=O)[O-])=C(O)C1

>  <measured-value>
6

$$$$
>  <compound>
O=C(O/N=C(/Cc1ccccc1)c1ccccc1)c1ccccc1

>  <measured-value>
63

$$$$
>  <compound>
COc1ccc(C(=O)c2cc(Cl)ccc2N)cc1

>  <measured-value>
93

$$$$
>  <compound>
CCN(CC)CCOC(=O)C1CCCCC1C(=O)C1CCCCC1 (centres undefined)

>  <measured-value>
3

$$$$
>  <compound>
CCc1nc(N)nc(N)c1-c1ccc(NCCCCCCCCCCCCN)c([N+](=O)[O-])c1

>  <measured-value>
99

$$$$
>  <compound>
C(=C\N1CCCCC1)/c1nnnn1-c1ccccc1

>  <measured-value>
6

$$$$
>  <compound>
O=CC(I)=C(c1ccccc1)c1ccccc1

>  <measured-value>
21

$$$$
>  <compound>
CCC/C(=N\O)S(=O)(=O)c1ccc(NN=O)nc1

>  <measured-value>
-11

$$$$
>  <compound>
Oc1ccc(CNC2CCCCC2)cc1

>  <measured-value>
4

$$$$

###

Test: NCI Yeast Anticancer Drug Screen. Data for the mec2-1 strain (AID 157)
Conditions: S. cerevisiae mec2-1 strain, at 50.0 µM, hits give high values
The panel holds about 79,000 compounds, 15% with a hit somewhere; the sample as a whole holds those more often.
Quick rule: growth inhibition of at least 60% means rule met, below that means rule not met.

>  <molecule>
CSc1cccc(N2C(=O)C=CC2=O)c1

>  <label-class>
rule met

$$$$
>  <molecule>
CC(=O)c1ccc2sc3ccccc3c2c1

>  <label-class>
rule not met

$$$$
>  <molecule>
Cc1cccc(C)c1NC(=O)CSC(N)=O

>  <label-class>
rule met

$$$$
>  <molecule>
Oc1cc2c(cc1C(c1ccc(F)cc1)N1CCCCC1)OCO2 (stereo unspecified)

>  <label-class>
rule met

$$$$
>  <molecule>
COc1ccc2c(c1)[n+]([O-])c(-c1ccc(Cl)cc1)c(N)[n+]2[O-]

>  <label-class>
rule met

$$$$
>  <molecule>
CC1CC2(C)ON=C(c3ccccc3)N2c2ccccc2S1 (stereo unspecified)

>  <label-class>
rule met

$$$$

###

Test: NCI Yeast Anticancer Drug Screen. Data for the sgs1 mgt1 strain (AID 161);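 note: 0% = growth of cultures given vehicle only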
Conditions: S. cerevisiae sgs1 mgt1 strain, at 50.0 µM
The panel holds about 79,000 compounds, 15% with a hit somewhere; the sample as a whole holds those more often. Calls of active or inactive are those of the source. Cut-off read from the data, not from the text of the source: active = growth inhibition above about 70%; inactive = the rest.
Outcomes: y = active, n = inactive

>  <compound>
N#CC(C(=O)C(=O)Nc1cccc(C(F)(F)F)c1)c1ccccc1 (stereo unspecified)

>  <label-class>
n

$$$$
>  <compound>
C/C(CCn1[nH]c(=O)ccc1=O)=N\NS(=O)(=O)c1ccc(C)cc1

>  <label-class>
n

$$$$
>  <compound>
Nc1cc(Cl)c2c(c1)Cc1ccccc1-2

>  <label-class>
y

$$$$
>  <compound>
O=C1OCCCN1/N=C/c1ccc([N+](=O)[O-])o1

>  <label-class>
y

$$$$
>  <compound>
O=C(O)/C(=C/c1ccccc1)c1ccc2ccccc2c1Br

>  <label-class>
y

$$$$
>  <compound>
O=C(O)c1cccc2c1Oc1c(cccc1C(=O)O)S2

>  <label-class>
y

$$$$
